In this section, each of the binders is paired with its reported Kd.
# EXPERIMENTAL_SYSTEM: mSPSB4ΔSB (murine)
# METHOD_DESCRIPTION: ITC; 100 μM peptide titrated into 10 μM mSPSB protein; 22 °C; 20 mM Tris, 150 mM sodium chloride, 2.5 mM calcium chloride, pH 8.0; single binding site model

BINDER | READOUT_UNITS | RELATION_SYMBOL | Kd
AAANELNANLPGGA (human prostate apoptosis response protein-4 (hPar-4), residues 64-77, N71A; source: synthetic peptide (GenScript Corporation)) [[N71A]hPar-4(64–77)] | nM | > | 50000
GTPAAAADNELNNNLPGGA (human prostate apoptosis response protein-4 (hPar-4), residues 59-77, A66D; source: synthetic peptide (GL Biochem)) [[A66D]hPar-4(59–77)] | nM | = | 255
AAANELANNLPGGA (human prostate apoptosis response protein-4 (hPar-4), residues 64-77, N70A; source: synthetic peptide (GenScript Corporation)) [[N70A]hPar-4(64–77)] | nM | > | 50000
AAANELNNNLPGGA (human prostate apoptosis response protein-4 (hPar-4), residues 64-77; also called shorter wild-type hPar-4 peptide; source: synthetic peptide (GenScript Corporation)) [hPar-4(64–77)] | nM | = | 213
